B1: MMP1 (parent)
chain: MFFKDRFYMRTNPFYPEVELNFIS

variants of: B1; experiment: protein stability index of a GFP-peptide fusion (GPS, HEK-293T) (PSI 1-6); higher = more stable; conditions: c terminus: a fixed tail appended;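 also: lentivirally expressed fusions sorted by FACS into six bins by GFP to DsRed ratio, PSI derived from sequencing read proportions per bin multiplied by bin number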
measurement_type: protein stability index
Please reply with the number alone, leaving off any unit.

*Q* Look up protein stability index of S24V and report it.
*A* 3.21

*Q* # return recorded protein stability index for entry R6Q
*A* 3.4

*Q* Answer with the recorded protein stability index for the variant listed here: I23L
*A* 3.31

*Q* Please report protein stability index for the following variant: L20I
*A* 3.27

*Q* For the variant M9W , give its reported protein stability index.
*A* 3.91

*Q* Identify the reported protein stability index for the following entry. F2K
*A* 4.48

*Q* For the variant M1A , report protein stability index.
*A* 1.89

*Q* Item R6K : provide protein stability index
*A* 3.46

*Q* Please look at this variant and report its protein stability index: D5E
*A* 2.63

*Q* # return recorded protein stability index for input T11H
*A* 1.78

*Q* Annotate the variant P13H with its measured protein stability index.
*A* 2.46

*Q* For F22C , write its protein stability index.
*A* 2.19

*Q* // fetch protein stability index given entry I23G
*A* 1.67

*Q* Read off the recorded protein stability index for E19A
*A* 3.48

*Q* Give protein stability index for the following variant: D5G
*A* 3.47

*Q* State, in one line, measured protein stability index of I23P
*A* 3.27

*Q* Answer with the recorded protein stability index for the variant listed here: T11K
*A* 3.17

*Q* Annotate the variant T11L with its measured protein stability index.
*A* 2.72

*Q* Provide protein stability index value for the following variant: D5Y
*A* 2.38

*Q* In one line, give reported protein stability index of the entry P16D .
*A* 2.18

*Q* Dear colleague, please send me the reported protein stability index for T11W when you can.
*A* 3.68

*Q* Read the entry E19G and write its reported protein stability index.
*A* 3.69
